Test system: NCI-H23 lung
Assay: NCI-60 one-dose screen, 48 h (100 = growth as untreated, 0 = no growth, -100 = all killed)
Settings: 10 µM
Compounds without any hit were thinned out: in the full panel of roughly 83,000, 20% have a hit. Activity calls are given as the source filed them. Rule for the calls: active = growth percent below 10; inactive = the rest.
Entries and their measured growth follow.

See these solved cases before continuing.
[
  {
    "compound": "Cc1cc(Cl)ccc1Nc1nc(C(F)(F)F)ccc1C(=O)N/N=C/c1cccc(O)c1",
    "study_system": "NCI-H23 lung",
    "growth": "43.8% (inactive)"
  },
  {
    "compound": "CNC(=O)c1cc(Oc2ccc3c(c2)sc2nc(-c4ccc(N)cc4)cn23)ccn1",
    "study_system": "NCI-H23 lung",
    "growth": "35% (inactive)"
  },
  {
    "compound": "S=c1cnc2ccccc2[nH]1",
    "study_system": "NCI-H23 lung",
    "growth": "98.4% (inactive)"
  },
  {
    "compound": "CCOC(=O)c1cc(C(=O)c2cc(OC)c(OC)c(OC)c2)n2ncc3ccccc3c12",
    "study_system": "NCI-H23 lung",
    "growth": "82.5% (inactive)"
  },
  {
    "compound": "Nc1ncnc2c1ncn2C1(CO)OCC(O)C(O)C1O (stereo unspecified)",
    "study_system": "NCI-H23 lung",
    "growth": "96.8% (inactive)"
  }
]

I am curious: what growth value has been reported for O=S(=O)(Oc1ccc(-c2ccc3sccc3c2)cc1)c1ccc(F)cc1 ? 87.6% (inactive)

---

Tested on: T-47D breast
Assay: NCI-60 one-dose screen, 48 h (100 = growth as untreated, 0 = no growth, -100 = all killed)
Conditions: 10 µM
This is part of a sample that, as a whole, favours compounds with a hit. Of some 83,000 tested, about 20% had one in any assay.
Label 1.0 when growth is at or above 80%; otherwise label 0.0.

[
  {
    "compound": "CN1CCN(c2cc3c(cc2F)c(=O)c(C(=O)O)cn3-c2ccc(F)cc2)CC1",
    "label_class": 1.0
  },
  {
    "compound": "Cc1cc(C)nc(NS(=O)(=O)c2ccc(Nc3nc4nc(NCc5ccccc5)nc(-c5ccc(O)cc5)c4c(=O)[nH]3)cc2)n1",
    "label_class": 0.0
  },
  {
    "compound": "CNC(=O)c1cc(Oc2ccc3c(c2)sc2nc(-c4ccc(N)cc4)cn23)ccn1",
    "label_class": 0.0
  },
  {
    "compound": "C[C@]12CCC3c4ccc(O)cc4C[C@@H](CCCCCCCCCS(=O)CCCC(F)(F)C(F)(F)F)C3C1CC[C@@H]2O (some centres undefined)",
    "label_class": 0.0
  },
  {
    "compound": "O=S(=O)(O)c1cccc(Nc2ccc3ccccc3c2)c1",
    "label_class": 1.0
  }
]

Does the compound O=C(N/N=C/c1ccc([N+](=O)[O-])cc1)c1ccccc1Nc1cccc(C(F)(F)F)c1 have recorded growth that is 80% or more? 1.0

Okay, and CN(C)CCOc1cccc(-c2nc3sccn3c2-c2ccnc(S(C)(=O)=O)n2)c1 ? 0.0

Okay, and COc1ccc(/C=C2\CCCC3=C2NC(N)=NC3c2ccc(OC)cc2)cc1 (centres undefined) ? 1.0

Okay, and NC1=CC(=O)C(=O)c2cccnc21 ? 1.0

Okay, and CCOC(=O)CN(c1sc(C)c(C)c1C(=O)OCC)S(=O)(=O)c1ccc(C)cc1 ? 1.0

Okay, and O[C@@H]1CO[C@H]2[C@@H]1OC[C@@H]2O ? 1.0

Okay, and COc1cc(OC)c2c(=O)c(O)c(-c3ccccc3)oc2c1 ? 1.0

Okay, and O=C(Nc1cccc2c1CCCC2)c1cc2ccccc2cc1O ? 0.0

Okay, and CCOC(=O)c1cc(C(=O)c2ccc(Cl)cc2)n2ccc(-c3cc[n+](CC(=O)c4ccc(OC)cc4)cc3)cc12 ? 1.0

Okay, and Cc1ccc2nc(Cl)c(-c3nc4ccccc4o3)cc2c1 ? 1.0

Okay, and CCOC(=O)c1cc(C(=O)c2cc(OC)cc(OC)c2)n2nc(C)ccc12 ? 0.0

Okay, and COc1ccc(Cc2cnc(N)nc2N)cc1OC ? 1.0

Okay, and O=C(CCCCC(=O)Oc1c(Cl)cc(Cl)cc1[N+](=O)[O-])Oc1c(Cl)cc(Cl)cc1[N+](=O)[O-] ? 1.0

Okay, and CCOC(=O)c1cocc1C(=O)O ? 1.0

Okay, and COc1ccc(C2CC(c3cccs3)=NN2c2ccc(S(N)(=O)=O)cc2)cc1 (centres undefined) ? 1.0

Okay, and O=C(CSc1nnc(-c2ccc(Cl)cc2)o1)Nc1ccc(C(=O)/C=C/c2ccc(Cl)cc2)cc1 ? 1.0

Okay, and O=C1/C(=C/c2ccc3c(c2)OCO3)SC(=S)N1C1c2ccccc2Oc2ccccc21 ? 1.0

Okay, and CC(C)(C)OC(=O)CN1CCc2c(sc3ncnc(N/N=C/c4cccc5ccccc45)c23)C1 ? 0.0

Okay, and COc1ccc(-c2n[nH]nc2-c2cc(OC)c(OC)c(OC)c2)cc1 ? 0.0

Okay, and CC(=O)Nc1ccc(CC[C@H]2CCC/C=C/[C@@H]3C[C@H](O)C[C@H]3[C@H](O)/C=C/C(=O)O2)cc1 ? 0.0

Okay, and O=C(CC(CC(=O)c1ccccc1)c1ccccc1O)c1ccccc1 ? 1.0

Okay, and COc1ccc(/C=C2/SC(=S)NC2=O)c(OC)c1OC ? 0.0

Okay, and COc1ccc(/C=C/c2nnc(/C=C/c3ccc(OC)c(OC)c3)o2)cc1OC ? 0.0

Okay, and O=S(=O)(Oc1ccc(-c2ccc3sccc3c2)cc1)c1ccc(F)cc1 ? 1.0

Okay, and CN(C)CCCOc1ccc(OCCCN(C)C)c2c1C(=O)c1ccccc1C2=O ? 0.0

Okay, and COc1cccc(N=Nc2cccc(OC)c2)c1 ? 0.0

---

System: RXF 393 renal
Test: NCI-60 one-dose screen, 48 h (100 = growth as untreated, 0 = no growth, -100 = all killed)
Conditions: 10 µM
About 83,000 compounds went through this panel and 20% of them were active in at least one assay; those are over-represented in the sample as a whole.
Entries and their measured growth follow.
Response body: numeric value in %, unit text excluded.

See these solved cases before continuing.
[
  {
    "compound": "COc1ccc2nc(-c3ccc(Cl)cc3)cc(-c3nnc(SC/C(=N\\O)c4ccccc4)n3-c3ccccc3)c2c1",
    "study_system": "RXF 393 renal",
    "growth / %": 66.7
  },
  {
    "compound": "CCC1NC(=O)c2cc(S(N)(=O)=O)c(Cl)cc2N1 (stereo not given)",
    "study_system": "RXF 393 renal",
    "growth / %": 115
  },
  {
    "compound": "Cc1cc(C)nc(NS(=O)(=O)c2ccc(Nc3nc4nc(NCc5ccccc5)nc(-c5ccc(O)cc5)c4c(=O)[nH]3)cc2)n1",
    "study_system": "RXF 393 renal",
    "growth / %": -1.77
  },
  {
    "compound": "NS(=O)(=O)Oc1ccc(-c2ccc3sccc3c2)cc1",
    "study_system": "RXF 393 renal",
    "growth / %": 100
  },
  {
    "compound": "Oc1ccc(/C=N/N=C2c3ccccc3-c3ccccc32)c(O)c1",
    "study_system": "RXF 393 renal",
    "growth / %": 49.6
  }
]

I am curious: what growth value has been reported for S=c1cnc2ccccc2[nH]1 ? 114

Okay, and COc1ccc(Cl)cc1Nc1nc(C(F)(F)F)ccc1C(=O)N/N=C/c1cc(OC)c(OC)c(OC)c1 ? -10.2

Okay, and Cc1ccccc1N1C(=O)c2cc(S(N)(=O)=O)c(Cl)cc2NC1C (stereo not given) ? 128

Okay, and CCCc1cn(CC(=O)Nc2nc3ccccc3s2)nn1 ? 114

Okay, and COc1ccc(-c2nn(-c3cccc(Cl)c3)cc2-c2cc(-c3cccs3)[nH]c(=S)n2)cc1 ? 56.7

---

Test system: 786-0 renal
Test: NCI-60 one-dose screen, 48 h (100 = growth as untreated, 0 = no growth, -100 = all killed)
Details: 10 µM
The panel holds about 83,000 compounds, 20% with a hit somewhere; the sample as a whole holds those more often. Calls of active or inactive are those of the source. The calls were made as follows: active = growth percent below 10; inactive = the rest.
Entries and their measured growth follow.

See these solved cases before continuing.
[
  {
    "compound": "C[C@]12CCC3c4ccc(O)cc4C[C@@H](CCCCCCCCCS(=O)CCCC(F)(F)C(F)(F)F)C3C1CC[C@@H]2O (stereo not given in full)",
    "measurement": "96.1% (inactive)"
  },
  {
    "compound": "NC(CSC(c1ccccc1)(c1ccccc1)c1cccc2ccccc12)C(=O)O (stereo not given)",
    "measurement": "98.2% (inactive)"
  },
  {
    "compound": "c1ccc(CCCCc2ccc3ccccc3n2)cc1",
    "measurement": "102% (inactive)"
  },
  {
    "compound": "COc1cc(/C=C2\\CCCC3=C2NC(N)=NC3c2cc(OC)c(OC)c(OC)c2)cc(OC)c1OC (stereo not given)",
    "measurement": "-20.1% (active)"
  },
  {
    "compound": "O=C(N/N=C/c1cc([N+](=O)[O-])ccc1O)c1cccc2ccccc12",
    "measurement": "36.5% (inactive)"
  },
  {
    "compound": "O=C1CSC(=S)N1/N=C/c1ccc(Cl)s1",
    "measurement": "102% (inactive)"
  },
  {
    "compound": "COc1ccc2c(c1)CC=C1[C@@H]2CC[C@]2(C)C(=O)/C(=N/O)C[C@@H]12",
    "measurement": "90.3% (inactive)"
  },
  {
    "compound": "O=C(N/N=C/c1c(Cl)cccc1Cl)c1ccccc1Nc1cccc(C(F)(F)F)c1",
    "measurement": "102% (inactive)"
  }
]

I am curious: what growth value has been reported for Cc1ccc(S(=O)(=O)N/N=C2\CCCc3ccccc32)cc1 ? 116% (inactive)

Okay, and CC(C)N(CCOc1cccc(-c2nc3sccn3c2-c2ccnc(S(C)(=O)=O)n2)c1)C(C)C ? 97.3% (inactive)

Okay, and Cc1ccc(-n2nnnc2N)c(C)c1 ? 105% (inactive)

Okay, and Cn1cnc([N+](=O)[O-])c1/C=C1\Oc2ccc(Br)cc2C1=O ? 91.4% (inactive)

Okay, and COc1ccc(N=Nc2cc(OC)c(OC)c(OC)c2)cc1 ? 98.2% (inactive)

Okay, and CCCN(CCC)C(=O)[C@H](CC)[C@@H]1CC[C@@H](C)[C@@H]([C@H](C)[C@@H](O)[C@@H](C)C(=O)[C@H](CC)C2O[C@]3(C=C[C@@H](O)[C@]4(CC[C@@](C)([C@H]5CC[C@](O)(CC)[C@H](C)O5)O4)O3)[C@H](C)C[C@@H]2C)O1 (stereo not given in full) ? 15.8% (inactive)

Cited source for all entries: PubChem BioAssay (NCI)
